Sequence of the target: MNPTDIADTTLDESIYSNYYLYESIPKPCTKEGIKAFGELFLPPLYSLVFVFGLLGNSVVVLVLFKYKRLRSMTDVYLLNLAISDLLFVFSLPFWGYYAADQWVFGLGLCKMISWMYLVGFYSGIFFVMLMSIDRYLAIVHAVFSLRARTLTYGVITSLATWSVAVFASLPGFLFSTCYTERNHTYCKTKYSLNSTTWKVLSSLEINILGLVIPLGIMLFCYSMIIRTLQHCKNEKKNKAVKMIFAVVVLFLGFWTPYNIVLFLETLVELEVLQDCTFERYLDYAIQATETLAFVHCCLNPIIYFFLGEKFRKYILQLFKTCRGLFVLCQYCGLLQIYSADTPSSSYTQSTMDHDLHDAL
pIC50: −log10 of the molar value. Where a name gives a salt, the structure may show the parent alone.

compound	pIC50
CNCC(=O)NCc1cccc(Cn2nc(NS(=O)(=O)c3ccc(Cl)s3)c3c(OC)cccc32)c1 [Example 85, trifluoroacetate]	7.80 to 8.40
COc1cccc2c1c(NS(=O)(=O)c1ccc(Cl)s1)nn2Cc1cccc(CNC(=O)C2CNCCN2)c1 (stereo not shown) [Example 16, hydrochloride]	7.80 to 8.40
CC(C)(O)c1cccc2c1c(NS(=O)(=O)c1ccc(Cl)s1)nn2Cc1cccc(CNC(=O)[C@@H]2COCCN2)c1 [Example 156]	6.40 to 7.00
CC(O)c1cccc2c1c(NS(=O)(=O)c1ccc(Cl)s1)nn2Cc1cccc(CNC(=O)[C@H]2COCCN2)c1 (stereo partly shown) [Example 152, formate salt]	7.80 to 8.40

Data origin, for the record: patent US8304446B2
